EC50 by entry:
# Assayed System: DLL4 (human, UniProt Q9NR61)
# Sequence (Q9NR61 27-524): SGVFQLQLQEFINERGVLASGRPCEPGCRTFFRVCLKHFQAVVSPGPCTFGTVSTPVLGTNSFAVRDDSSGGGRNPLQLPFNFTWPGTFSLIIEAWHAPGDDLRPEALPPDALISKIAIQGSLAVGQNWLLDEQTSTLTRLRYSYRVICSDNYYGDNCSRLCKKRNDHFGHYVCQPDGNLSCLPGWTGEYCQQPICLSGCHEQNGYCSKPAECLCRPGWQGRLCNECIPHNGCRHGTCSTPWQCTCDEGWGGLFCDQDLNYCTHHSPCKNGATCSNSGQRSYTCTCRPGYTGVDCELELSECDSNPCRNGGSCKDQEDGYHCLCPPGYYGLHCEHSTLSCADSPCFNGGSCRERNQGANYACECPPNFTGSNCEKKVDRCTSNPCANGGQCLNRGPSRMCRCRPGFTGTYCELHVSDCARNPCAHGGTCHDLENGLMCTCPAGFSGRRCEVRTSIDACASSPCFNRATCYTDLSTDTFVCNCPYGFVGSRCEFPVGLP
# Test Description: ELISA
Give the quantity in nM, number only.

| Binder | Reported Value |
| --- | --- |
| DVD460 DLL4 arm (antibody, V domains shown, DVD-Ig inner) VH: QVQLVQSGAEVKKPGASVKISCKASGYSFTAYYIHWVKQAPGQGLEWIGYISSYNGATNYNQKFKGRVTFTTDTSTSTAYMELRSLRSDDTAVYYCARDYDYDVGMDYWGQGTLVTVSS VL: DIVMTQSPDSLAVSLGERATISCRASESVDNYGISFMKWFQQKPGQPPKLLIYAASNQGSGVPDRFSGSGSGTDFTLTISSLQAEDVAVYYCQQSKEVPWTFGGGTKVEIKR | 0.64 |
| DVD526 DLL4 arm (antibody, V domains shown, DVD-Ig inner) VH: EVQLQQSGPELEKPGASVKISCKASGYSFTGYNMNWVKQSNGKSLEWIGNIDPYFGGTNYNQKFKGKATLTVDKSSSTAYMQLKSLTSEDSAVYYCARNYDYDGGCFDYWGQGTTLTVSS VL: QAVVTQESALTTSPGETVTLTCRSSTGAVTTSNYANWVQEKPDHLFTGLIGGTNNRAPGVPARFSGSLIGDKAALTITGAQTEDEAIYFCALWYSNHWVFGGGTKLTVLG | 1.57 |

Next binder, EC50 to be filled in.
Query: Give reported EC50 value for DVD496 DLL4 arm (antibody, V domains shown, DVD-Ig inner) VH: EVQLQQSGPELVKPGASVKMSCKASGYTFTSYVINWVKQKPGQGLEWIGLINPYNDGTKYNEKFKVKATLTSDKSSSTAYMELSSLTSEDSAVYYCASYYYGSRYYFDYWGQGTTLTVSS VL: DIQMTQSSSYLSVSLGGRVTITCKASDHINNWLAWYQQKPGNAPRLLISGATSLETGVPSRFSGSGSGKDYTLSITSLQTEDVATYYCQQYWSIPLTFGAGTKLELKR
Result: 5.59
